molecular target: ACVR2B (Homo sapiens); experiment: KINOMEscan competition binding; conditions: read-out: %Inh ACVR2B
Sequence (Q13705 19-512): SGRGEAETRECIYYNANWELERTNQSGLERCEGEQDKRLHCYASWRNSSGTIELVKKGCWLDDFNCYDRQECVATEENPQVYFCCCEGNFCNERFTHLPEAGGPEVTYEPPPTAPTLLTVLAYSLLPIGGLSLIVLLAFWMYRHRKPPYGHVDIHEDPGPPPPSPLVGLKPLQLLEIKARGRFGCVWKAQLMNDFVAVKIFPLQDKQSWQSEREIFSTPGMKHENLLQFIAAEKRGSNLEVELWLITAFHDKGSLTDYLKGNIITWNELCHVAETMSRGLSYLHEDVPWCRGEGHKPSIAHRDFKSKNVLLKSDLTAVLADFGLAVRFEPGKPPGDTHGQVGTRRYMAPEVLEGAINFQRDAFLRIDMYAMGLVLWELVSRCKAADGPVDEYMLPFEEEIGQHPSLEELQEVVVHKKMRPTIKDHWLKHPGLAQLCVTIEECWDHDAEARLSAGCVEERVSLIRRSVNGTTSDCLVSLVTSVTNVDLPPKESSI
So I've got a bunch of compounds here, and I need their inhibition at 1 µM values.
Write the number in % without appending the unit.

Enquiry: GET /values?readout=inhibition at 1 µM&item= Cn1cc(-c2cnc(N)c3c(-c4ccc5c(c4)CCN5C(=O)Cc4ccccc4)csc23)cn1 [UNC10225012A]
Return: 0

Enquiry: GET /values?readout=inhibition at 1 µM&item= O=c1cc(N2CCOCC2)nc2n(Cc3cccc(Cl)c3Cl)c(C3CC3)nn12 [UNC10225469A]
Return: 0

Enquiry: GET /values?readout=inhibition at 1 µM&item= COc1cccc(OC)c1C(=O)Nc1cccc(-c2nn3ccccc3c2-c2ccnc(Nc3cccc(F)c3)n2)c1 [UNC10225310A]
Return: 27

Enquiry: GET /values?readout=inhibition at 1 µM&item= Cc1ccc(NC(=O)Nc2cccc(C(F)(F)F)c2)cc1 [UNC10225187A]
Return: 0

Enquiry: GET /values?readout=inhibition at 1 µM&item= CS(=O)(=O)Cc1ccc(Nc2nccc(-c3c(-c4cccc(NC(=O)C5CCCCC5)c4)nn4ncccc34)n2)cc1 [UNC10225159A]
Return: 0

----------
biological target: CSNK1A1 (Homo sapiens, UniProt P48729); experiment: KINOMEscan competition binding; conditions: read-out: %Inh CSNK1A1
Sequence (P48729 whole entry): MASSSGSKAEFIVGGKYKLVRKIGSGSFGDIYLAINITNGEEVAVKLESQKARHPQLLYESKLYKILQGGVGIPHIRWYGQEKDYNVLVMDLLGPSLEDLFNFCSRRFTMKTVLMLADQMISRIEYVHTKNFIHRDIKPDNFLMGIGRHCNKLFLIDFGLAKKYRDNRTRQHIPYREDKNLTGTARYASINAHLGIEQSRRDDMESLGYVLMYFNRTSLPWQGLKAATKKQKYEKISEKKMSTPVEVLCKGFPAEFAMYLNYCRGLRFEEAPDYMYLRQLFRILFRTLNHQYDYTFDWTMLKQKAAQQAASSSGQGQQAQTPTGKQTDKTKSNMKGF
So I've got a bunch of compounds here, and I need their inhibition at 1 µM values.
Write the number in % without appending the unit.

Enquiry: Give CSNK1A1 (Homo sapiens, UniProt P48729) inhibition at 1 µM for Cc1ccc(NC(=O)Nc2cccc(C(F)(F)F)c2)cc1 [UNC10225187A]
Return: 0

Enquiry: Give CSNK1A1 (Homo sapiens, UniProt P48729) inhibition at 1 µM for Cn1cc(-c2cnc(N)c3c(-c4ccc5c(c4)CCN5C(=O)Cc4ccccc4)csc23)cn1 [UNC10225012A]
Return: 21

Enquiry: Give CSNK1A1 (Homo sapiens, UniProt P48729) inhibition at 1 µM for O=c1cc(N2CCOCC2)nc2n(Cc3cccc(Cl)c3Cl)c(C3CC3)nn12 [UNC10225469A]
Return: 0

Enquiry: Give CSNK1A1 (Homo sapiens, UniProt P48729) inhibition at 1 µM for CS(=O)(=O)Cc1ccc(Nc2nccc(-c3c(-c4cccc(NC(=O)C5CCCCC5)c4)nn4ncccc34)n2)cc1 [UNC10225159A]
Return: 7

Enquiry: Give CSNK1A1 (Homo sapiens, UniProt P48729) inhibition at 1 µM for COc1cccc(OC)c1C(=O)Nc1cccc(-c2nn3ccccc3c2-c2ccnc(Nc3cccc(F)c3)n2)c1 [UNC10225310A]
Return: 25

----------
molecular target: AMPK-alpha1 (Homo sapiens); experiment: KINOMEscan competition binding; settings: read-out: %Inh AMPK-alpha1
Sequence (Q13131 whole entry): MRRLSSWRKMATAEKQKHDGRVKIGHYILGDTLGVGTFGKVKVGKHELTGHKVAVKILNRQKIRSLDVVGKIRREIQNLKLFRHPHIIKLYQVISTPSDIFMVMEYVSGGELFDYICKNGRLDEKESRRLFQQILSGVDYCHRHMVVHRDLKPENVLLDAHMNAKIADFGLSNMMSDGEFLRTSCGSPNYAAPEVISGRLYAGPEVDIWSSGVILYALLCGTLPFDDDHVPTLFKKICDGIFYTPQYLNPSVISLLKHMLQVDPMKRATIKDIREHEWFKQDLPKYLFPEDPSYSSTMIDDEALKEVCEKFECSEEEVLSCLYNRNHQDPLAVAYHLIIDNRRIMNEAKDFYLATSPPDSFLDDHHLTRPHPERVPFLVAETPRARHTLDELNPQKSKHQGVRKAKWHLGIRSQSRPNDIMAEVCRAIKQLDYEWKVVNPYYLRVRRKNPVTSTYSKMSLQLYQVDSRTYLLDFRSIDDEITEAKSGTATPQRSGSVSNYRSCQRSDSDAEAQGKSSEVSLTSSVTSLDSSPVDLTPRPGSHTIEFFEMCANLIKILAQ
Measure: inhibition at 1 µM (%)
Write the number in % without appending the unit.

Enquiry: GET /values?readout=inhibition at 1 µM&item= Cc1ccc(NC(=O)Nc2cccc(C(F)(F)F)c2)cc1 [UNC10225187A]
Return: 0

Enquiry: GET /values?readout=inhibition at 1 µM&item= COc1cccc(OC)c1C(=O)Nc1cccc(-c2nn3ccccc3c2-c2ccnc(Nc3cccc(F)c3)n2)c1 [UNC10225310A]
Return: 25

Enquiry: GET /values?readout=inhibition at 1 µM&item= Cn1cc(-c2cnc(N)c3c(-c4ccc5c(c4)CCN5C(=O)Cc4ccccc4)csc23)cn1 [UNC10225012A]
Return: 17

Enquiry: GET /values?readout=inhibition at 1 µM&item= O=c1cc(N2CCOCC2)nc2n(Cc3cccc(Cl)c3Cl)c(C3CC3)nn12 [UNC10225469A]
Return: 5

Enquiry: GET /values?readout=inhibition at 1 µM&item= CS(=O)(=O)Cc1ccc(Nc2nccc(-c3c(-c4cccc(NC(=O)C5CCCCC5)c4)nn4ncccc34)n2)cc1 [UNC10225159A]
Return: 2
